Catalogue of IC50 at 24 h values
assay: MTT test, cytotoxic effect on cells of normal origin; format: cell-based, human; conditions: human, Hek-293 cells (normal origin), 24 h treatment, 0.1 to 100 µM, normal cells, concentration that causes 50% cell death

Example compounds with recorded IC50 at 24 h:
> print(dat)
                                   compound  endpoint.result
1  FC(F)(F)c1ccc(-n2nnc3ccccc32)c(-n2cnc3cc(C(F)(F)F)ccc32)c1 [7a]         ≥ 100 µM
2  O=[N+]([O-])c1cc(C(F)(F)F)ccc1Nc1cc(C(F)(F)F)ccc1-n1nnc2ccccc21 [5b]         ≥ 100 µM
3  O=[N+]([O-])c1cc(Cl)ccc1-n1cnc2ccccc21 [3b]         ≥ 100 µM
4  Nc1cc(Cl)ccc1-n1nnc2ccccc21 [4e, 2-(1H-benzotriazol-1-yl)-5-chloroaniline]          87.4 µM
5  Nc1cc(C(F)(F)F)ccc1Nc1cc(Cl)ccc1-n1nnc2ccccc21 [6d]          41.4 µM
6  Nc1cc(Cl)ccc1-n1cnc2ccccc21 [4b, 2-(1H-benzimidazol-1-yl)-5-chloroaniline]         ≥ 100 µM
7  O=[N+]([O-])c1cc(C(F)(F)F)ccc1Nc1cc(C(F)(F)F)ccc1-n1cnc2ccccc21 [5a]         ≥ 100 µM
8  CCOC(=O)c1ccc(Nc2cc(C(F)(F)F)ccc2-n2nnc3ccccc32)c(N)c1 [6c]         ≥ 100 µM

Query compound follows.
IN: Dear colleague, I am looking for the recorded IC50 at 24 h of the following compound: CCOC(=O)c1ccc(-n2nnc3ccccc32)c([N+](=O)[O-])c1 [3d]
OUT: ≥ 100 µM

----------
experiment: MTT test, summary over all tested cell lines; type: cell-based, human; settings: human; all cells, including those of normal origin, Hek-293; read-out: IC50 values of the cytotoxic effect, range over all cells
ENDPOINT LABEL: IC50 at 24 h

> print(dat)
                                   molecule  endpoint.label  endpoint.result
1  Nc1cc(C(F)(F)F)ccc1Nc1cc(Cl)ccc1-n1nnc2ccccc21 [6d]    IC50 at 24 h      31 to 41 µM

Query molecule follows.
IN: Dear colleague, I am looking for the recorded IC50 at 24 h of the following molecule: Nc1cc(C(F)(F)F)ccc1Nc1cc(C(F)(F)F)ccc1-n1nnc2ccccc21 [6b]
OUT: 22 to 26 µM
